Please respond with reported Anti-PSMA Fab (SEQ ID NOs: 19, 20) signal for every item in the list.
- tested_target: T1, Anti-PSMA Fab (SEQ ID NOs: 19, 20)
- T1 construct: Biotinylated and captured on neutravidin coated plates in the phage ELISA; also called 006 PSMA Fab
- test_name: phage binding ELISA; biotinylated anti-PSMA Fab captured on neutravidin plate, clonal phage supernatant, anti-M13 HRP detection
Respond numerically, and do not add a unit to the figure.

Q. Using known records, supply Anti-PSMA Fab (SEQ ID NOs: 19, 20) signal for FVPCIPSHWLCPIW (tested as crude phage supernatant) [Phage-1741 (clonal phage displaying the peptide of SEQ ID NO: 2037)]
A. 1.05

Q. Using known records, supply Anti-PSMA Fab (SEQ ID NOs: 19, 20) signal for FCNWVDGDVWVVCK (tested as crude phage supernatant) [Phage-1734 (clonal phage displaying the peptide of SEQ ID NO: 2018)]
A. 0.51

Q. Using known records, supply Anti-PSMA Fab (SEQ ID NOs: 19, 20) signal for SIPCIPRDWLCPIK (tested as crude phage supernatant) [Phage-1725 (clonal phage displaying the peptide of SEQ ID NO: 2009)]
A. 1.8

Q. Using known records, supply Anti-PSMA Fab (SEQ ID NOs: 19, 20) signal for PDCVYHSFWGYSCR (tested as crude phage supernatant) [Phage-1740 (clonal phage displaying the peptide of SEQ ID NO: 2024)]
A. 0.583

Q. Using known records, supply Anti-PSMA Fab (SEQ ID NOs: 19, 20) signal for ACHSLVLKHHLQKC (tested as crude phage supernatant) [Phage-1738 (clonal phage displaying the peptide of SEQ ID NO: 2022)]
A. 1.18

Q. Using known records, supply Anti-PSMA Fab (SEQ ID NOs: 19, 20) signal for HCKFHDYHSWYMCY (tested as crude phage supernatant) [Phage-1737 (clonal phage displaying the peptide of SEQ ID NO: 2021)]
A. 1.58

Q. Using known records, supply Anti-PSMA Fab (SEQ ID NOs: 19, 20) signal for FCQWIEATNAWLCY (tested as crude phage supernatant) [Phage-1732 (clonal phage displaying the peptide of SEQ ID NO: 2016)]
A. 1.06

Q. Using known records, supply Anti-PSMA Fab (SEQ ID NOs: 19, 20) signal for FCGWMDGDVFWFCG (tested as crude phage supernatant) [Phage-1733 (clonal phage displaying the peptide of SEQ ID NO: 2017)]
A. 0.428

Q. Using known records, supply Anti-PSMA Fab (SEQ ID NOs: 19, 20) signal for MEYCSFHRFTCVLW (tested as crude phage supernatant) [Phage-1736 (clonal phage displaying the peptide of SEQ ID NO: 2020)]
A. 1.74

Q. Using known records, supply Anti-PSMA Fab (SEQ ID NOs: 19, 20) signal for SCGWLRGEEFGWWC (tested as crude phage supernatant) [Phage-1739 (clonal phage displaying the peptide of SEQ ID NO: 2023)]
A. 0.891

Q. Using known records, supply Anti-PSMA Fab (SEQ ID NOs: 19, 20) signal for FGHCAGSPVFCAYW (tested as crude phage supernatant) [Phage-1730 (clonal phage displaying the peptide of SEQ ID NO: 2014)]
A. 1.06

Q. Using known records, supply Anti-PSMA Fab (SEQ ID NOs: 19, 20) signal for NCWWHDFRAGHVVC (tested as crude phage supernatant) [Phage-1723 (clonal phage displaying the peptide of SEQ ID NO: 2007)]
A. 2.05

Q. Using known records, supply Anti-PSMA Fab (SEQ ID NOs: 19, 20) signal for IRCVGEGHDLVCIF (tested as crude phage supernatant) [Phage-1724 (clonal phage displaying the peptide of SEQ ID NO: 2008)]
A. 2.12

Q. Using known records, supply Anti-PSMA Fab (SEQ ID NOs: 19, 20) signal for ICQWIGATNAWVCY (tested as crude phage supernatant) [Phage-1726 (clonal phage displaying the peptide of SEQ ID NO: 2010)]
A. 1.82

Q. Using known records, supply Anti-PSMA Fab (SEQ ID NOs: 19, 20) signal for PLCGTEEVWWECRL (tested as crude phage supernatant) [Phage-1728 (clonal phage displaying the peptide of SEQ ID NO: 2012)]
A. 1.57

Q. Using known records, supply Anti-PSMA Fab (SEQ ID NOs: 19, 20) signal for NAHCWLWVPAHCRV (tested as crude phage supernatant) [Phage-1729 (clonal phage displaying the peptide of SEQ ID NO: 2013)]
A. 1.35

The reported measurements were obtained from patent US20260242478A1.
